# targetOrSystem: T1, PUF4 RNA-binding domain (Saccharomyces cerevisiae, UniProt P25339 537-888)
# T1 sequence: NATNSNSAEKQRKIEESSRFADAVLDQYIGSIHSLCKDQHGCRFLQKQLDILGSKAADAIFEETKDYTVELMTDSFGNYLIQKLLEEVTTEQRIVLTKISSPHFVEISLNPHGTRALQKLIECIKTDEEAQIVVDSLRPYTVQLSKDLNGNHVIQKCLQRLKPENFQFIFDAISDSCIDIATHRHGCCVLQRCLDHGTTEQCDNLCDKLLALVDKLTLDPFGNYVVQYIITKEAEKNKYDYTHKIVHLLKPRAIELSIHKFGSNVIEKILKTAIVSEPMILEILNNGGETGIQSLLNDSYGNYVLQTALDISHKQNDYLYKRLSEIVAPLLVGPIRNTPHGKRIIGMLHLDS
# measurementNotes: Mg; RNA-MaP; 20 mM Na-HEPES pH 7.4, 30 mM KOAc, 0.75 mM MgCl2, 0.1% Tween-20, 5% glycerol, 0.1 mg/mL BSA, 2 mM DTT; 25 C; 0.0125-409.6 nM protein
# measurementParameters: tags: N-His6-TEV cleaved; C-SNAP kept, Cy3B-labelled; label: tethered on chip by stalled RNA polymerase
Classes (Kd): lower range: < 20 nM; middle range: ≥ 20 nM and < 100 nM; upper range: ≥ 100 nM

{"binder": "ACAAACAAACACUAUUAUGACAAAC (ssRNA) [Id_ii_S3_P4E.4_K4.3_C4.2_[C-2A]_[T-1A]_H4.3_A4.1_F4.1_T4.2_[G10T]_[T11G]]", "classification": "upper range"}
{"binder": "Ib_S2_P4E.1_K4.1_C4.1_H4.1_A4.1_[T5C]_F4.1_[T8A]_T4.1 (ssRNA) RNA: UUUGAUUAAUAUGAUAUCGUUCUUUCUUGUACAUAAUUCUUUCUCGAUAUCAUAUUAAUCUUU", "classification": "lower range"}
{"binder": "UCUCUUCUUAUAUAUAAAUCUCUU (ssRNA) [Id_ii_S1_P3E.3_K3.2_C3.2_H3.2_A3.1_F3.1_T3.2_[T9A]]", "classification": "upper range"}
{"binder": "UCUCUUUAUAUAUAUUACCUCUCUU (ssRNA) [Id_ii_S1_P4E.3_K4.2_C4.2_[C-2T]_[T-1A]_H4.2_A4.1_F4.1_T4.2_[G10C]_[T11C]]", "classification": "middle range"}
{"binder": "Id_ii_S2_P5E.4_K5.3_C5.2_[C-2A]_[T-1C]_H5.3_A5.1_F5.1_T5.2_[T11C] (ssRNA) RNA: UUUGAUUAAUAUGAUAUCGUUCUUUCUACACACUUAUUACAUUCUUUCUCGAUAUCAUAUUAAUCUUU", "classification": "upper range"}
{"binder": "Ic_S2_P5E.1_K5.1_C5.1_H5.1_A5.1_[T5C]_[T6G]_[A7T]_F5.1_[T8G]_[A10T]_T5.1 (ssRNA) RNA: UUUGAUUAAUAUGAUAUCGUUCUUUCUUGUACGUGUUUUCUUUCUCGAUAUCAUAUUAAUCUUU", "classification": "middle range"}
{"binder": "Ie_S4_P4E.1_K4.1_C4.1_H4.1_A4.1_[+6CCCT]_F4.1_T4.1 (ssRNA) RNA: UUUGACAACUGAUCGUUCUUUCUUGUAUACCCUUUAUUCUUUCUCGAUCAGUUGUCUUU", "classification": "middle range"}
{"binder": "Id_iii_S4_P4E.5_K4.1_C4.3_[C-2A]_H4.1_A4.1_F4.1_T4.2 (ssRNA) RNA: UUUGACAACUGAUCGUUCUUUCUUAUUGUAUAUUAGUUUCUUUCUCGAUCAGUUGUCUUU", "classification": "lower range"}

Inquiry: Category of Ia_S4_P5E.1_K5.1_C5.1_H5.1_A5.1_[T5C]_F5.1_T5.1 (ssRNA) RNA: UUUGACAACUGAUCGUUCUUUCUUGUACUAUUAUUCUUUCUCGAUCAGUUGUCUUU , please.
Reply text: lower range

Inquiry: Category of ACAAACUAUAUAUAUUAACACAAAC (ssRNA) [Id_ii_S3_P4E.3_K4.2_C4.2_[C-2T]_[T-1A]_H4.2_A4.1_F4.1_T4.2_[G10A]_[T11C]] , please.
Reply text: middle range

Inquiry: Category of Ic_S4_P4E.1_K4.1_C4.1_H4.1_A4.1_[T5A]_[A6T]_[T7C]_F4.1_[T8A]_[A9G]_T4.1 (ssRNA) RNA: UUUGACAACUGAUCGUUCUUUCUUGUAAUCAGUUCUUUCUCGAUCAGUUGUCUUU , please.
Reply text: upper range

Origin of measurements: paper PMC9352680
